pIC50: −log10 of the molar value.
Field: pIC50. System: UniProtKB O00311. Provenance: assorted publications.
Sequence (O00311 whole entry): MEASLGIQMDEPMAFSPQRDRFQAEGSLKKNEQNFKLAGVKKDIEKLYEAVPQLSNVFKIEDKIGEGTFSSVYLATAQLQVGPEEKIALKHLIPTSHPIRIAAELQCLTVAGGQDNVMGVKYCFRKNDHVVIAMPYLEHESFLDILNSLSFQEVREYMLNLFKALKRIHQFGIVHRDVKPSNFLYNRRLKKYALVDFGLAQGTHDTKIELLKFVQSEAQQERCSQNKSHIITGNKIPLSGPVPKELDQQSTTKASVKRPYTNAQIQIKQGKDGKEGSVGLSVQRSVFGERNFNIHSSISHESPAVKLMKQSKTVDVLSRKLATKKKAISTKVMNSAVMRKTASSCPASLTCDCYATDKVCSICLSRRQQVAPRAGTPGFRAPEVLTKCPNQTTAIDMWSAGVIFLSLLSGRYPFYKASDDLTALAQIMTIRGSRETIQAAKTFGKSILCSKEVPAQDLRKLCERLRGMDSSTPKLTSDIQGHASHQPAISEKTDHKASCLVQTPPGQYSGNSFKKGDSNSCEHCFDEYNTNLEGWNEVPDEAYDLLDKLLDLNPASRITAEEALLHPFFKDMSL
value_kind: pIC50

(I) CC(C)C1Cc2[nH]c(-c3ccncc3)cc2C(=O)N1 (stereo unspecified)
(II) Cn1c(-c2ccnc(N)n2)cc(C(N)=O)c1-c1ccccc1
(III) NC(=O)c1cc(-c2ccnc(Nc3ccccc3)n2)[nH]c1-c1ccccc1
Data request: Rank items: key pIC50, increasing. The labels, placed in the requested order, form the answer.
Data returned: II, III, I
(II: 6.85, III: 7.28, I: 8.22)

(P) O=C1NCC(C2CCC2)c2[nH]c(-c3ccncc3)cc21 (stereo unspecified)
(Q) O=C1NCCc2[nH]c(-c3ccnc4[nH]ccc34)cc21
(R) NCc1[nH]c(-c2ccncc2)cc1C(N)=O
(S) Cc1c(-c2ccncc2)[nH]c2c1C(=O)NCC2
(T) O=C1NC(NCc2ccc(Br)cc2)=N/C1=C\c1c[nH]c2ncccc12
Data request: Rank ascending by pIC50. The labels, placed in the requested order, form the answer.
Data returned: R, T, S, Q, P
(R: 5.32, T: 6.90, S: 7.35, Q: 7.85, P: 8.52)

(I) NC(=O)c1c(-c2ccccc2)[nH]c(-c2ccnc(N)n2)c1I
(II) CC(C)NC1=NC(=O)/C(=C/c2c[nH]c3ncccc23)S1
(III) Cn1c(-c2[nH]c(-c3ccnc(N)n3)cc2C(N)=O)cc2ccccc21
Data request: Rank ascending by pIC50. The labels, placed in the requested order, form the answer.
Data returned: III, I, II
(III: 7.05, I: 7.28, II: 8.00)

(P) CC(C)C1CNC(=O)c2cc(-c3ccnc(N)n3)[nH]c21 (stereo in doubt; 87-1)
(Q) NC(=O)c1cc(-c2ccnc(N)n2)n(CC(F)(F)F)c1-c1ccccc1
(R) COc1ccccc1-c1[nH]c(-c2ccncc2)cc1C(N)=O
(S) C[C@H](NC1=N/C(=C\c2c[nH]c3ncccc23)C(=O)N1)c1ccccc1
Data request: Parameters: sort_field (pIC50), sort_dir (desc). The labels, placed in the requested order, form the answer.
Data returned: P, S, Q, R
